Just for reference, patent US20210340217A1 is where these values come from.

biological target: HLA-B*44:02 (Homo sapiens, UniProt P01889, A223V/A65T/A93T/A95T/D201E/D98Y/E176V/E187L/E204Q/E69K/G107R/H137Y/K202T/L105A/L119I/N104T/N87E/Q56L/Q94N/R106L/R155S/R180D/S101N/S121R/S35A/S48T/T118I/V36M/W191S/Y140D/Y91S); assay: MHC binding assay (UV-ligand exchange, beta2m ELISA); conditions: peptide exchange yield
parameter: Peptide exchange

[[record]]
substance = "52 (AEFLLRIFL; listed as Homo sapiens) [compound 52]"
result = "“++” (>20% = ++)"

[[record]]
substance = "414 (EDAALFKAW; listed as Homo sapiens) [compound 414]"
result = "“++” (>20% = ++)"

[[record]]
substance = "425 (SEVPLPMAI; listed as Homo sapiens) [compound 425]"
result = "“+++” (>50 = +++)"

[[record]]
substance = "416 (SEEETRVVF; listed as Homo sapiens) [compound 416]"
result = "“+++” (>50 = +++)"


---

target: HLA-B*44:02 (Homo sapiens, UniProt P01889, A223V/A65T/A93T/A95T/D201E/D98Y/E176V/E187L/E204Q/E69K/G107R/H137Y/K202T/L105A/L119I/N104T/N87E/Q56L/Q94N/R106L/R155S/R180D/S101N/S121R/S35A/S48T/T118I/V36M/W191S/Y140D/Y91S); assay: MHC binding assay (UV-ligand exchange, beta2m ELISA); settings: peptide exchange yield
parameter: Peptide exchange

[[record]]
substance = "397 (REGDTVQLL; listed as Homo sapiens) [compound 397]"
parameter = "Peptide exchange"
result = "“++” (>20% = ++)"

[[record]]
substance = "178 (NELFRDGVNW; listed as Homo sapiens) [compound 178]"
parameter = "Peptide exchange"
result = "“+++” (>50 = +++)"

[[record]]
substance = "423 (SEVPTGTTA; listed as Homo sapiens) [compound 423]"
parameter = "Peptide exchange"
result = "“++” (>20% = ++)"

[[record]]
substance = "177 (TEVGTMNLF; listed as Homo sapiens) [compound 177]"
parameter = "Peptide exchange"
result = "“+++” (>50 = +++)"

[[record]]
substance = "191 (EEDAALFKAW; listed as Homo sapiens) [compound 191]"
parameter = "Peptide exchange"
result = "“+++” (>50 = +++)"

[[record]]
substance = "192 (YEFKFPNRL; listed as Homo sapiens) [compound 192]"
parameter = "Peptide exchange"
result = "“+++” (>50 = +++)"

[[record]]
substance = "426 (PEKTTHSF; listed as Homo sapiens) [compound 426]"
parameter = "Peptide exchange"
result = "“+” (>10% = +)"

[[record]]
substance = "188 (AEFAKKQPWW; listed as Homo sapiens) [compound 188]"
parameter = "Peptide exchange"
result = "“+++” (>50 = +++)"

[[record]]
substance = "405 (NEIWTHSY; listed as Homo sapiens) [compound 405]"
parameter = "Peptide exchange"
result = "“+” (>10% = +)"

[[record]]
substance = "183 (YEKGIMQKV; listed as Homo sapiens) [compound 183]"
parameter = "Peptide exchange"
result = "“++” (>20% = ++)"

[[record]]
substance = "180 (REAGDEFELRY; listed as Homo sapiens) [compound 180]"
parameter = "Peptide exchange"
result = "“++” (>20% = ++)"

[[record]]
substance = "204 (RETSTSEETSL; listed as Homo sapiens) [compound 204]"
parameter = "Peptide exchange"
result = "“+++” (>50 = +++)"

[[record]]
substance = "429 (REKFIASVI; listed as Homo sapiens) [compound 429]"
parameter = "Peptide exchange"
result = "“++” (>20% = ++)"

[[record]]
substance = "208 (TEVSRTEAI; listed as Homo sapiens) [compound 208]"
parameter = "Peptide exchange"
result = "“++” (>20% = ++)"

[[record]]
substance = "407 (AEHEGVSVL; listed as Homo sapiens) [compound 407]"
parameter = "Peptide exchange"
result = "“++” (>20% = ++)"

[[record]]
substance = "210 (VEAADIFQNF; listed as Homo sapiens) [compound 210]"
parameter = "Peptide exchange"
result = "“+++” (>50 = +++)"

[[record]]
substance = "173 (AEAQVGDERDY; listed as Homo sapiens) [compound 173]"
parameter = "Peptide exchange"
result = "“+++” (>50 = +++)"


---

target: HLA-B*44:02 (Homo sapiens, UniProt P01889, A223V/A65T/A93T/A95T/D201E/D98Y/E176V/E187L/E204Q/E69K/G107R/H137Y/K202T/L105A/L119I/N104T/N87E/Q56L/Q94N/R106L/R155S/R180D/S101N/S121R/S35A/S48T/T118I/V36M/W191S/Y140D/Y91S); experiment: MHC binding assay (UV-ligand exchange, beta2m ELISA); conditions: peptide exchange yield
parameter: Peptide exchange

[[record]]
substance = "427 (HESSSHHDL; listed as Homo sapiens) [compound 427]"
result = "“++” (>20% = ++)"

[[record]]
substance = "402 (RELANDELIL; listed as Homo sapiens) [compound 402]"
result = "“++” (>20% = ++)"

[[record]]
substance = "54 (AEITITTQTGY; listed as Homo sapiens) [compound 54]"
result = "“+++” (>50 = +++)"

[[record]]
substance = "56 (SEPDTTASW; listed as Homo sapiens) [compound 56]"
result = "“+++” (>50 = +++)"

[[record]]
substance = "215 (SEDGLPEGIHL; listed as Homo sapiens) [compound 215]"
result = "“++” (>20% = ++)"

[[record]]
substance = "199 (REIDESLIFY; listed as Homo sapiens) [compound 199]"
result = "“+++” (>50 = +++)"

[[record]]
substance = "415 (REEDAALFKAW; listed as Homo sapiens) [compound 415]"
result = "“+++” (>50 = +++)"

[[record]]
substance = "212 (MEQKQLQKRF; listed as Homo sapiens) [compound 212]"
result = "“+++” (>50 = +++)"

[[record]]
substance = "196 (REMPGGPVW; listed as Homo sapiens) [compound 196]"
result = "“+++” (>50 = +++)"

[[record]]
substance = "57 (QESDLRLFL; listed as Homo sapiens) [compound 57]"
result = "“+++” (>50 = +++)"

[[record]]
substance = "205 (SEITRIEM; listed as Homo sapiens) [compound 205]"
result = "“++” (>20% = ++)"

[[record]]
substance = "408 (LEKALQVF; listed as Homo sapiens) [compound 408]"
result = "“++” (>20% = ++)"


---

molecular target: HLA-B*07:02 (Homo sapiens, UniProt P01889); experiment: MHC binding assay (UV-ligand exchange, beta2m ELISA); conditions: peptide exchange yield
parameter: Peptide exchange

[[record]]
substance = "306 (APVIFSHSA; listed as Homo sapiens) [compound 306]"
result = "“++” (>20% = ++)"

[[record]]
substance = "142 (TPGLRETSI; listed as Homo sapiens) [compound 142]"
result = "“++” (>20% = ++)"

[[record]]
substance = "312 (LPYFREFSM; listed as Homo sapiens) [compound 312]"
result = "“+++” (>50 = +++)"

[[record]]
substance = "301 (SPRRSPRISF; listed as Homo sapiens) [compound 301]"
result = "“++” (>20% = ++)"

[[record]]
substance = "325 (GPRNAQRVL; listed as Homo sapiens) [compound 325]"
result = "“+++” (>50 = +++)"

[[record]]
substance = "118 (SPASRSISL; listed as Homo sapiens) [compound 118]"
result = "“+++” (>50 = +++)"

[[record]]
substance = "39 (RPAPFEVVF; listed as Homo sapiens) [compound 39]"
result = "“+++” (>50 = +++)"

[[record]]
substance = "329 (FPAMTESGGMIL; listed as Homo sapiens) [compound 329]"
result = "“+++” (>50 = +++)"

[[record]]
substance = "350 (NPSSTTTEF; listed as Homo sapiens) [compound 350]"
result = "“+++” (>50 = +++)"

[[record]]
substance = "347 (MPLTTGSQGM; listed as Homo sapiens) [compound 347]"
result = "“++” (>20% = ++)"

[[record]]
substance = "295 (YPLRGSSIFGL; listed as Homo sapiens) [compound 295]"
result = "“+++” (>50 = +++)"

[[record]]
substance = "133 (MPNLPSTTSL; listed as Homo sapiens) [compound 133]"
result = "“+++” (>50 = +++)"

[[record]]
substance = "376 (RPRSPAGQVA; listed as Homo sapiens) [compound 376]"
result = "“+++” (>50 = +++)"

